System: M19-MEL
Method: NCI tumour cell line growth inhibition, 48 h
Active and inactive are the calls of the source. Cut-off read from the data, not from the text of the source: active = GI50 up to about 1.1 µM and inactive = higher.
Assign a class; possible classes are active, inactive

Before answering, review these 4 worked examples.
INSERT INTO results (query_smiles, category) VALUES
  ('C/C(CC(=O)CCCC(=O)Nc1ccc(Cl)cc1Cl)=N/NC(=O)CC#N', 'inactive'),
  ('O=c1sc(-c2nc3ccccc3[nH]2)c(/N=C/c2ccccc2)n1-c1ccccc1', 'inactive'),
  ('CCN(CC)CCNc1ccc2ncn3c4ccccc4c(=O)c1c23', 'inactive'),
  ('O=C(CC(=O)c1ccccc1NC1=Cc2ccccc2C(=O)C1=O)C(=O)NC1=C(Cl)C(=O)c2ccccc2C1=O', 'active');

Query compound follows.
Request: Per the records of this test, what outcome belongs to Cc1cc(C)c(C(=O)c2no[n+]([O-])c2C(=O)c2c(C)cc(C)c(Br)c2C)c(C)c1Br ?
Result: inactive

###

Test system: IGROV-1
Method: NCI tumour cell line growth inhibition, 48 h
Active and inactive are the calls of the source. Rule as the data show it: active = GI50 up to about 1.1 µM and inactive = higher.
Value Kind: GI50

INSERT INTO measurements (compound, tested_on, value_kind, observed_measurement) VALUES
  ('CCc1c(CN)c(CC)c(CNC2=NCCN2)c(CC)c1CNC1=NCCN1', 'IGROV-1', 'GI50', '> 100 µM (inactive)');

Give me GI50 for each of these compounds, listed below.
1. CC(Oc1ccccc1)C(=O)NN (stereo unspecified)
2. CCOC(=O)C1COc2cc(-c3cc(=O)c4ccccc4o3)ccc2O1 (stereo unspecified)
3. CC1(C)C2=CCCC(=O)[C@@]2(C)CC[C@@H]1O
4. CCCCCC(=O)OC[n+]1ccc2c(C)c3[nH]c4ccccc4c3c(C)c2c1
5. CC1c2c(Cl)nc3ccccc3c2Oc2c1c(Cl)nc1ccccc21

Result:
1: > 100 µM (inactive); 2: 66.8 µM (inactive); 3: > 100 µM (inactive); 4: 1.75 µM (inactive); 5: > 100 µM (inactive)

###

Assign GI50 to each entry below.
System: SNB-78
Method: NCI tumour cell line growth inhibition, 48 h
Activity calls are given as the source filed them. Rule as the data show it: active = GI50 up to about 1.1 µM and inactive = higher.

Known results for compounds:
INSERT INTO measurements (compound, value_kind, observed_measurement) VALUES
  ('O=C1Cc2nc(CO)c(CO)c(CO)c2CO1', 'GI50', '> 100 µM (inactive)'),
  ('CC1(C)OC(COP2OCCO2)[C@H](COP2OCCO2)O1 (stereo partly specified)', 'GI50', '> 100 µM (inactive)'),
  ('CN(CCS(=O)(=O)N1C(=O)C2CCCN2C(=O)[C@@H]1Cc1ccccc1)C(=O)OCc1ccccc1 (stereo partly specified)', 'GI50', '92.7 µM (inactive)'),
  ('CCCCN1C(=O)NC(Cc2ccccc2)C1=O (stereo unspecified)', 'GI50', '> 100 µM (inactive)'),
  ('O=C(NO)c1ccc(O)c(O)c1', 'GI50', '> 100 µM (inactive)'),
  ('O=C(N/C(=C\c1ccccc1Cl)c1nc2ccccc2[nH]1)c1ccccc1', 'GI50', '45.6 µM (inactive)'),
  ('CCCCCCCCCCCc1nnc(N)o1', 'GI50', '> 100 µM (inactive)'),
  ('COC(=O)CCC(=O)C(CC(=O)OC)C(=O)CCC(=O)NCCc1ccccc1 (stereo unspecified)', 'GI50', '> 100 µM (inactive)'),
  ('O=C(O)C1=C(C(=O)O)Oc2ccccc2O1', 'GI50', '> 100 µM (inactive)'),
  ('C/C(CC(=O)CCCC(=O)Nc1ccc(Cl)cc1Cl)=N/NC(=O)CC#N', 'GI50', '> 100 µM (inactive)');

Briefly, GI50 measured for COC(=O)[C@]1(C)C(OC)=CC(=O)C2C1[C@H]1CCC[C@@H]21 (stereo partly specified) : > 100 µM (inactive)
